ASSAY_TARGET: human GLP-1R (Homo sapiens, UniProt P43220, G168S)
Sequence (P43220 24-463 G168S limits assumed): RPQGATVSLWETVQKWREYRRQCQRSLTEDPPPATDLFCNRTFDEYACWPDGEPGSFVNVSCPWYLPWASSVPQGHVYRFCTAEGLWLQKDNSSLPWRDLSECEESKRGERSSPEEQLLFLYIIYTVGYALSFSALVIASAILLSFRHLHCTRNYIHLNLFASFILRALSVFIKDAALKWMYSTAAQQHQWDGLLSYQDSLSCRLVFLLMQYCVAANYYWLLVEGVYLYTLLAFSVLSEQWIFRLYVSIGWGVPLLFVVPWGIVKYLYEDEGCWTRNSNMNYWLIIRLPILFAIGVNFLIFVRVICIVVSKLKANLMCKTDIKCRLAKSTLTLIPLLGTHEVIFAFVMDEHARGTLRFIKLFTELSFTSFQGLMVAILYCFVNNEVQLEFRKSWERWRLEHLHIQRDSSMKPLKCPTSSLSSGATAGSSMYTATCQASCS
ASSAY_TEXT: CHO GLP-1R Clone H6 - Assay 1 (HTRF cAMP agonist assay)
STUDY_CONDITIONS: CHO GLP-1R Clone H6, cAMP HTRF; geometric mean
Record form. Attribute: EC50. Fill in for each entry.
Numbers only, in nM.

The cases that follow already have their EC50 on record.
COCCn1c(CN2CCC(c3cccc4c3OC(C)(c3ccc(F)cc3)O4)CC2)nc2ccc(C(=O)O)cc21 (stereo not shown)
10
COCCn1c(C2CC23CCN(c2cccc4c2OC(C)(c2ccc(Cl)cc2F)O4)CC3)nc2ccc(C(=O)O)cc21 (single isomer, unassigned) [Example 16]
7.7
COCCn1c(CN2CCC(c3cccc4c3OC(C)(c3ccc(C(F)(F)F)cc3)O4)CC2)nc2ccc(C(=O)O)cc21 (stereo not shown)
14

stdin: I am curious: what EC50 value has been reported for COCCn1c(CN2CCC(c3cccc4c3OC(C)(c3ccc(C#N)cn3)O4)CC2)nc2ccc(C(=O)O)cc21 (stereo not shown) [Example 94] ?
stdout: 12
